The reported measurements were obtained from patent US20120004235A1.

tested on: RPMI 8226 (multiple myeloma) human tumor cell line; test: Cell TiterGlo cell growth inhibition (Test C); assay type: cell-based; details: 72 hours exposure, ATP content luminescence, read-out: IC50 concentration
ENDPOINT_NAME: pIC50
Give only the number. pIC50 is defined as minus log10 of concentration in molar units.

Note down pIC50 recorded for CNCCn1c(=O)c2cc(OC)c(OC)cc2c2cnc3cc4c(cc3c21)OCO4
8.47

====

test system: NCI-H460 Human Non-small Cell Lung Carcinoma; assay: Human tumor cell CFU assay (Test B); assay type: cell-based; settings: Homo sapiens, NCI-H460; colony formation, continuous exposure 7-9 days; read-out: IC90 Values (95% Lower and Upper Confidence Intervals)
ENDPOINT_NAME: IC90
Your reply should be a number followed by the unit it is expressed in.

Reference set, count: 4
Note down IC90 recorded for CC[C@@]1(O)C(=O)OCc2c1cc1n(c2=O)Cc2cc3c(CN(C)C)c(O)ccc3nc2-1 [Topotecan, reference compound]
52.5 nM

Note down IC90 recorded for COc1cc2c(C(=O)NCC(C)(C)N(C)C)cc3c4cc5c(cc4ncc3c2cc1OC)OCO5
3 nM

Note down IC90 recorded for COc1cc2c(=O)n(CCN(C)C(C)C)c3c4cc5c(cc4ncc3c2cc1OC)OCO5
11 nM

Note down IC90 recorded for CNCCn1c(=O)c2cc(OC)c(OC)cc2c2cnc3cc4c(cc3c21)OCO4
5 nM

Others:
Note down IC90 recorded for COc1cc2c(=O)n(CCN(C)C)c3c4cc5c(cc4ncc3c2cc1OC)OCO5
6.2 nM

====

assay: Half-life in nude mice (Example 22); type: in vivo; conditions: mouse, in vivo; nude mice, ip
ENDPOINT_NAME: half-life (h)
State the answer as a number, implicitly in h.

Note down half-life recorded for CNCCn1c(=O)c2cc(OC)c(OC)cc2c2cnc3cc4c(cc3c21)OCO4
10.4

====

Below, each entry is listed with its recorded IC50.
system: HCT116 Human Colon Carcinoma; test: Human tumor cell CFU assay (Test B); type: cell-based; details: Homo sapiens, HCT-116; colony formation, continuous exposure 7-9 days; read-out: IC50 Values (95% Lower and Upper Confidence Intervals)
State the answer as a number, implicitly in nM.

Note down IC50 recorded for CC[C@@]1(O)C(=O)OCc2c1cc1n(c2=O)Cc2cc3c(CN(C)C)c(O)ccc3nc2-1 [Topotecan, reference compound]
8.5

Note down IC50 recorded for COc1cc2c(=O)n(CCN(C)C(C)C)c3c4cc5c(cc4ncc3c2cc1OC)OCO5
1.2

Note down IC50 recorded for COc1cc2c(C(=O)NCC(C)(C)N(C)C)cc3c4cc5c(cc4ncc3c2cc1OC)OCO5
0.4

Note down IC50 recorded for CNCCn1c(=O)c2cc(OC)c(OC)cc2c2cnc3cc4c(cc3c21)OCO4
0.9

Others:
Note down IC50 recorded for COc1cc2c(=O)n(CCN(C)C)c3c4cc5c(cc4ncc3c2cc1OC)OCO5
1.7

====

Below, each entry is listed with its recorded melting point.

Note down melting point recorded for COc1cc2c(cc1OC)-c1cnc3cc4c(cc3c1N(CCN(C)C)C2)OCO4
271 to 273 °C (dec.)

Note down melting point recorded for CCN(CC)CCn1c(=O)c2cc(OC)c(OC)cc2c2cnc3cc4c(cc3c21)OCO4
221 to 223 °C (dec.)

Note down melting point recorded for COc1cc2c(=O)n(CCN3CCCC3)c3c4cc5c(cc4nnc3c2cc1OC)OCO5
229 °C

Note down melting point recorded for COc1cc2c(=O)n(CCOCCO)c3c4cc5c(cc4ncc3c2cc1OC)OCO5
235 °C

Others:
Note down melting point recorded for COc1cc2c(=O)n(C(C)CN(C)C)c3c4cc5c(cc4ncc3c2cc1OC)OCO5 (stereo not shown)
186 to 187 °C

Note down melting point recorded for COc1cc2c(=O)n(CCN3CCCCC3)c3c4cc5c(cc4nnc3c2cc1OC)OCO5
294 to 295 °C

Note down melting point recorded for COc1cc2c(=O)n(CCO)c3c4cc5c(cc4ncc3c2cc1OC)OCO5
285 to 286 °C

Note down melting point recorded for COc1cc2c(=O)n(CCCN(C)C)c3c4cc5c(cc4ncc3c2cc1OC)OCO5
262 to 264 °C (dec.)

Note down melting point recorded for COc1cc2c(=O)n(CCN3CCCC3)c3c4cc5c(cc4ncc3c2cc1OC)OCO5
255 to 257 °C (dec.)

Note down melting point recorded for COc1cc2c(cc1OC)-c1cnc3cc4c(cc3c1N(C(C)CN(C)C)C2)OCO4 (stereo not shown)
153 to 154 °C
